Biological target: thromboxane synthetase (Rattus norvegicus)
Construct: The platelets were isolated by centrifuging the PRP for 10 minutes at 1060 xg; endogenous in cells; host or cells: washed platelets from arterial blood of Okamoto-Aoki spontaneously hypertensive rats (Taconic Farms), 19 to 24 weeks old
Sequence (P49430 1-533): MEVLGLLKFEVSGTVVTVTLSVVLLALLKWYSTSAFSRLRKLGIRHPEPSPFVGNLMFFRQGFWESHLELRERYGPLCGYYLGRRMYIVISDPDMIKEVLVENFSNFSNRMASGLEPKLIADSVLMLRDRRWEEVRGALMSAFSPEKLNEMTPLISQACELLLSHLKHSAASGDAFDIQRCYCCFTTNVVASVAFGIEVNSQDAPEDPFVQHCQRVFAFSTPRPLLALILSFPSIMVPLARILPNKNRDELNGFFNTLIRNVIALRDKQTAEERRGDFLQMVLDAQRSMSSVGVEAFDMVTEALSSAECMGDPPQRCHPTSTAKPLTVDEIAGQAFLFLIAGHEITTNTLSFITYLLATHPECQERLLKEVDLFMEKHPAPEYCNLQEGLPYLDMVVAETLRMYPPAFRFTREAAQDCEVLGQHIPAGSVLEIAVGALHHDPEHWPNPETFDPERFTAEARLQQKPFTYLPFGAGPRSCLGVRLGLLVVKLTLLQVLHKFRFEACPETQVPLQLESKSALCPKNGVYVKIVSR
Test: Inhibition of thromboxane (TXA2) formation, determined as TXB2 formed by washed SHR platelets (direct RIA)
Assay type: cell-based, Okamoto-Aoki spontaneously hypertensive rats (SHR)
Settings: Dose 10^-4 M, 10 minutes at 37° C., pH 7.4
Mark condition not met for inhibition at 100 µM values under 90%, and condition met for everything at or above.

>  <compound>
CC(CNC(=O)c1cc2cc(Cl)ccc2[nH]1)Cn1ccnc1 (stereo not drawn)

>  <class assignment>
condition met

$$$$

In: Answer whether inhibition at 100 µM of O=C(NCCCCCCCCn1ccnc1)c1cc2cc(Cl)ccc2[nH]1 is greater than or equal to 90%.
Out: condition not met

In: Next compound: O=C(NCCCCn1ccnc1)c1cc2ccccc2[nH]1
Out: condition met

In: Subsequent entry: Cc1cn(CCCNC(=O)c2cc3ccccc3n2C)cn1
Out: condition not met

In: Now consider O=C(NCCCn1ccnc1)c1cc2cc(Cl)ccc2[nH]1 and answer again.
Out: condition met

In: Now the compound O=C(NCCCn1ccnc1)c1cc2ccccc2[nH]1
Out: condition met

In: Thanks! And Cc1cn(CCCNC(=O)c2cc3ccccc3[nH]2)cn1 ?
Out: condition met

In: Also Cc1nccn1CCCNC(=O)c1cc2ccccc2[nH]1 , if possible.
Out: condition not met

In: One more compound: CC(CCNC(=O)c1cc2cc(Cl)ccc2[nH]1)n1ccnc1 (stereo not drawn)
Out: condition met

In: Follow-up entry: COc1ccc2[nH]c(C(=O)NCCCCn3ccnc3)cc2c1
Out: condition met
